System: NCI-H522
Experiment: COMPOUND A In Vitro Assay
Assay type: cell-based
Conditions: Homo sapiens, Lung, TP53 Mutant
reportedEndpoint: pIC50
# pIC50 = -log10(concentration in molar units)

[in] Tell me reported pIC50 for CCOc1cc(C(C)(C)C)ccc1C1=N[C@@](C)(c2ccc(Cl)cc2)[C@@](C)(c2ccc(Cl)cc2)N1C(=O)N1CCN(CCCS(C)(=O)=O)CC1 , tested with NCI-H522.
[out] 4.66

---

Tested on: ZR-75-1
Assay: COMPOUND A In Vitro Assay
Format: cell-based
Details: Homo sapiens, ZR-75-1, ZR-75-1 cells
reportedEndpoint: pIC50
# pIC50 = -log10(concentration in molar units)

[in] Entry CCOc1cc(C(C)(C)C)ccc1C1=N[C@@](C)(c2ccc(Cl)cc2)[C@@](C)(c2ccc(Cl)cc2)N1C(=O)N1CCN(CCCS(C)(=O)=O)CC1 : reported pIC50 = ?
[out] 7.00

---

Tested on: SK-HEP-1
Assay: COMPOUND A In Vitro Assay
Format: cell-based
Details: Homo sapiens, SK-HEP1, SK-HEP-1; Liver; TP53 Wild type
reportedEndpoint: IC50 (µM)
Number only, in µM; omit the unit.

[in] Entry CCOc1cc(C(C)(C)C)ccc1C1=N[C@@](C)(c2ccc(Cl)cc2)[C@@](C)(c2ccc(Cl)cc2)N1C(=O)N1CCN(CCCS(C)(=O)=O)CC1 [COMPOUND A] : reported IC50 = ?
[out] 0.22

---

System: PA-1
Assay: COMPOUND A In Vitro Assay
Type: cell-based
Conditions: Homo sapiens, PA-1, PA-1 cells
reportedEndpoint: pIC50
# pIC50 = -log10(concentration in molar units)

[in] Entry CCOc1cc(C(C)(C)C)ccc1C1=N[C@@](C)(c2ccc(Cl)cc2)[C@@](C)(c2ccc(Cl)cc2)N1C(=O)N1CCN(CCCS(C)(=O)=O)CC1 : reported pIC50 = ?
[out] 6.22

---

Test system: KMS-26
Experiment: COMPOUND A In Vitro Assay
Assay type: cell-based, human
Conditions: Homo sapiens, KMS-26, KMS-26 cells
reportedEndpoint: pIC50
# pIC50 = -log10(concentration in molar units)

[in] Tell me reported pIC50 for CCOc1cc(C(C)(C)C)ccc1C1=N[C@@](C)(c2ccc(Cl)cc2)[C@@](C)(c2ccc(Cl)cc2)N1C(=O)N1CCN(CCCS(C)(=O)=O)CC1 [COMPOUND A] , tested with KMS-26.
[out] 6.30

---

Tested on: NCCIT
Experiment: COMPOUND A In Vitro Assay
Type: cell-based
Details: Homo sapiens, Germ cell, gametocyte, TP53 Mutant
reportedEndpoint: IC50 (µM)
Number only, in µM; omit the unit.

[in] Tell me reported IC50 for CCOc1cc(C(C)(C)C)ccc1C1=N[C@@](C)(c2ccc(Cl)cc2)[C@@](C)(c2ccc(Cl)cc2)N1C(=O)N1CCN(CCCS(C)(=O)=O)CC1 , tested with NCCIT.
[out] 11

---

Test system: SK-MEL-1
Assay: COMPOUND A In Vitro Assay
Type: cell-based
Settings: Homo sapiens, SK-MEL-1, SK-MEL-1 cells
reportedEndpoint: IC50 (nM)
Number only, in nM; omit the unit.

[in] Entry CCOc1cc(C(C)(C)C)ccc1C1=N[C@@](C)(c2ccc(Cl)cc2)[C@@](C)(c2ccc(Cl)cc2)N1C(=O)N1CCN(CCCS(C)(=O)=O)CC1 [COMPOUND A] : reported IC50 = ?
[out] 800

---

Tested on: Hs 38•T
Assay: COMPOUND A In Vitro Assay
Format: cell-based
Details: Homo sapiens, Hs 38•T, Ovary, TP53 Wild type
reportedEndpoint: IC50 (nM)
Number only, in nM; omit the unit.

[in] Entry CCOc1cc(C(C)(C)C)ccc1C1=N[C@@](C)(c2ccc(Cl)cc2)[C@@](C)(c2ccc(Cl)cc2)N1C(=O)N1CCN(CCCS(C)(=O)=O)CC1 : reported IC50 = ?
[out] 730

---

Tested on: NCI-H929
Assay: COMPOUND A In Vitro Assay
Format: cell-based
Settings: Homo sapiens, Lymphocyte B, bone marrow, TP53 Wild type
reportedEndpoint: IC50 (µM)
Number only, in µM; omit the unit.

[in] Entry CCOc1cc(C(C)(C)C)ccc1C1=N[C@@](C)(c2ccc(Cl)cc2)[C@@](C)(c2ccc(Cl)cc2)N1C(=O)N1CCN(CCCS(C)(=O)=O)CC1 [COMPOUND A] : reported IC50 = ?
[out] 0.3

---

System: HCC1806
Experiment: COMPOUND A In Vitro Assay
Assay type: cell-based
Settings: Homo sapiens, Breast, mammary gland, TP53 Mutant
reportedEndpoint: IC50 (µM)
Number only, in µM; omit the unit.

[in] Entry CCOc1cc(C(C)(C)C)ccc1C1=N[C@@](C)(c2ccc(Cl)cc2)[C@@](C)(c2ccc(Cl)cc2)N1C(=O)N1CCN(CCCS(C)(=O)=O)CC1 : reported IC50 = ?
[out] 11

---

Test system: Hs 578T
Assay: COMPOUND A In Vitro Assay
Assay type: cell-based
Settings: Homo sapiens, Breast, mammary gland, TP53 Mutant
reportedEndpoint: IC50 (µM)
Number only, in µM; omit the unit.

[in] Entry CCOc1cc(C(C)(C)C)ccc1C1=N[C@@](C)(c2ccc(Cl)cc2)[C@@](C)(c2ccc(Cl)cc2)N1C(=O)N1CCN(CCCS(C)(=O)=O)CC1 : reported IC50 = ?
[out] 8.8

---

Test system: NCI-N87
Test: COMPOUND A In Vitro Assay
Format: cell-based
Settings: Homo sapiens, Stomach, TP53 Mutant
reportedEndpoint: IC50 (µM)
Number only, in µM; omit the unit.

[in] Entry CCOc1cc(C(C)(C)C)ccc1C1=N[C@@](C)(c2ccc(Cl)cc2)[C@@](C)(c2ccc(Cl)cc2)N1C(=O)N1CCN(CCCS(C)(=O)=O)CC1 : reported IC50 = ?
[out] 12

---

Test system: Calu-6
Assay: COMPOUND A In Vitro Assay
Type: cell-based
Settings: Homo sapiens, Lung, TP53 Mutant
reportedEndpoint: pIC50
# pIC50 = -log10(concentration in molar units)

[in] Entry CCOc1cc(C(C)(C)C)ccc1C1=N[C@@](C)(c2ccc(Cl)cc2)[C@@](C)(c2ccc(Cl)cc2)N1C(=O)N1CCN(CCCS(C)(=O)=O)CC1 [COMPOUND A] : reported pIC50 = ?
[out] 4.77

---

System: KELLY
Assay: COMPOUND A In Vitro Assay
Assay type: cell-based
Conditions: Homo sapiens, Brain, TP53 Mutant
reportedEndpoint: pIC50
# pIC50 = -log10(concentration in molar units)

[in] Entry CCOc1cc(C(C)(C)C)ccc1C1=N[C@@](C)(c2ccc(Cl)cc2)[C@@](C)(c2ccc(Cl)cc2)N1C(=O)N1CCN(CCCS(C)(=O)=O)CC1 : reported pIC50 = ?
[out] 4.82

---

System: MCF7
Experiment: COMPOUND A In Vitro Assay
Type: cell-based
Conditions: Homo sapiens, MCF7, MCF7; Breast, mammary gland; TP53 Wild type
Procedure: To generate an MDM2 antagonist therapy predictive signature, the response of MDM2 antagonist therapy in vitro with gene expression profiling (FIG. 1) is combined. […] The mutational status of nucleic acids from each cell line is determined by exome sequencing. […]
reportedEndpoint: IC50 (nM)
Number only, in nM; omit the unit.

[in] Entry CCOc1cc(C(C)(C)C)ccc1C1=N[C@@](C)(c2ccc(Cl)cc2)[C@@](C)(c2ccc(Cl)cc2)N1C(=O)N1CCN(CCCS(C)(=O)=O)CC1 [COMPOUND A] : reported IC50 = ?
[out] 750

---

Test system: Y79
Test: COMPOUND A In Vitro Assay
Assay type: cell-based
Conditions: Homo sapiens, Y79, Y79 cells
reportedEndpoint: pIC50
# pIC50 = -log10(concentration in molar units)

[in] Entry CCOc1cc(C(C)(C)C)ccc1C1=N[C@@](C)(c2ccc(Cl)cc2)[C@@](C)(c2ccc(Cl)cc2)N1C(=O)N1CCN(CCCS(C)(=O)=O)CC1 [COMPOUND A] : reported pIC50 = ?
[out] 6.22

---

Test system: PC-10
Experiment: COMPOUND A In Vitro Assay
Assay type: cell-based
Conditions: Homo sapiens, PC10, Lung, TP53 Mutant
reportedEndpoint: IC50 (µM)
Number only, in µM; omit the unit.

[in] Entry CCOc1cc(C(C)(C)C)ccc1C1=N[C@@](C)(c2ccc(Cl)cc2)[C@@](C)(c2ccc(Cl)cc2)N1C(=O)N1CCN(CCCS(C)(=O)=O)CC1 : reported IC50 = ?
[out] 14

---

Test system: SK-HEP-1
Assay: COMPOUND A In Vitro Assay
Type: cell-based
Details: Homo sapiens, SK-HEP1, SK-HEP-1 cells
reportedEndpoint: pIC50
# pIC50 = -log10(concentration in molar units)

[in] Entry CCOc1cc(C(C)(C)C)ccc1C1=N[C@@](C)(c2ccc(Cl)cc2)[C@@](C)(c2ccc(Cl)cc2)N1C(=O)N1CCN(CCCS(C)(=O)=O)CC1 [COMPOUND A] : reported pIC50 = ?
[out] 6.70

Every entry's value here was drawn from patent US9657351B2.
